Tested on: larvae of the mustard beetle (Phaedon cochleariae)
Experiment: Phaedon test (spray treatment), Example E
Format: in vivo
Conditions: Table E, 500 g/ha active compound
Listed below: Kill rate in % after 7d values for each entry.

smiles-data	result-units	Kill rate in % after 7d
CCOC(=O)Oc1c(-c2cc(-c3ccc(Cl)cc3Cl)ccc2C)c(=O)n2n1CCOCC2	%	100
Cc1ccc(-c2cccc([N+](=O)[O-])c2)cc1-c1c(O)n2n(c1=O)CCOCC2	%	100
Cc1ccc(-c2ccc(Cl)c(Cl)c2)cc1-c1c(O)n2n(c1=O)CCCC2	%	100

----------
Test system: caterpillars of the army worm (Spodoptera frugiperda)
Test: Spodoptera frugiperda test (spray treatment), Example F
Assay type: in vivo
Conditions: maize leaf discs, 500 g/ha
Procedure: Spodoptera frugiperda Test (Spray Treatment) [table] To produce a suitable preparation of active compound, 1 part by weight of active compound is mixed with the stated amounts of solvents and emulsifier, and the concentrate is diluted with emulsifier-containing water to the desired concentration. […] After the desired period of time, the activity in % is determined 100% means that all caterpillars have been killed; 0% means that none of the caterpillars have been killed.
Listed here: items and their measured Kill rate in % after 7d.

smiles-data	tested-on	result-units	Kill rate in % after 7d
CCOC(=O)Oc1c(-c2cc(-c3ccc(F)c(Cl)c3)ccc2C)c(=O)n2n1CCCC2	caterpillars of the army worm (Spodoptera frugiperda)	%	83
CCOC(=O)Oc1c(-c2cc(-c3cccc(F)c3)ccc2C)c(=O)n2n1CCOCC2	caterpillars of the army worm (Spodoptera frugiperda)	%	100
Cc1ccc(-c2ccc(F)cc2)cc1-c1c(O)n2n(c1=O)CCOCC2	caterpillars of the army worm (Spodoptera frugiperda)	%	100
Cc1ccc(-c2cccc(F)c2)cc1-c1c(OC(=O)C(C)(C)C)n2n(c1=O)CCOCC2	caterpillars of the army worm (Spodoptera frugiperda)	%	100
Cc1ccc(-c2cccc(Cl)c2)cc1-c1c(OC(=O)C(C)(C)C)n2n(c1=O)CCOCC2	caterpillars of the army worm (Spodoptera frugiperda)	%	100
